Task for the reader: assign each of the following variants its reported reverse-splicing fitness.
B1: Azoarcus group I ribozyme (parent)
chain: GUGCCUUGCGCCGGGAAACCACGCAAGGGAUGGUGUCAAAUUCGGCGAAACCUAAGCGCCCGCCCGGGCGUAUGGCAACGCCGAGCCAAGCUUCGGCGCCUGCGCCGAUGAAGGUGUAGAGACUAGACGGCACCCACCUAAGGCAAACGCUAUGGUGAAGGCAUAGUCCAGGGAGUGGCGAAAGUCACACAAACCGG

# Variants of: B1
# assayComment: reverse-splicing fitness (ratio to wild type); higher = more active; in vitro selection; Mg2+ level not given
# respond with the number and nothing more

get_value(item= A111G A120C C169A U176G , readout=reverse-splicing fitness) returns 0.00421

get_value(item= C82A A120C A145C U176C , readout=reverse-splicing fitness) returns 0.0514

get_value(item= A111G A120U A145C C150A C169G U176G , readout=reverse-splicing fitness) returns 0.00195

get_value(item= C82U A111U A145C C150G C169A , readout=reverse-splicing fitness) returns 0.00853

get_value(item= C82G A111U A120C A145G C150G U176G , readout=reverse-splicing fitness) returns 0.00789

get_value(item= C82A A111U A120C A145U C150G C169A U176C , readout=reverse-splicing fitness) returns 0.0116

get_value(item= A111U A120G U176A , readout=reverse-splicing fitness) returns 0.0388

get_value(item= A111G A145U C150U U176G , readout=reverse-splicing fitness) returns 0.317

get_value(item= C82A A111U A120G A145C C150U C169A , readout=reverse-splicing fitness) returns 0.00869

get_value(item= C82A A111C A145C C150A C169U U176A , readout=reverse-splicing fitness) returns 0.0138

get_value(item= C82A A111U A120C C150A C169G U176G , readout=reverse-splicing fitness) returns 0.00775

get_value(item= C82A A111U A120U A145U C150G , readout=reverse-splicing fitness) returns 0.00631

get_value(item= C82G A111U A120U C150U C169G U176G , readout=reverse-splicing fitness) returns 0.00236

get_value(item= C82A A111U A120C A145C C150A U176A , readout=reverse-splicing fitness) returns 0.0115

get_value(item= A111C A120G A145U C150U C169G U176G , readout=reverse-splicing fitness) returns 0.00542

get_value(item= C82A A111G A120C A145C C150A C169A U176A , readout=reverse-splicing fitness) returns 0.0178

get_value(item= C82A A145C C150A C169G U176C , readout=reverse-splicing fitness) returns 0.0122

get_value(item= A111U A120U C150U C169G , readout=reverse-splicing fitness) returns 0.0274

get_value(item= A111C A145C C169U U176G , readout=reverse-splicing fitness) returns 0.00694

get_value(item= A120G C150U C169A U176C , readout=reverse-splicing fitness) returns 0.126

get_value(item= C82A A111G A120G C169A U176G , readout=reverse-splicing fitness) returns 0.00477

get_value(item= C82G A111U A145G C150G C169U U176C , readout=reverse-splicing fitness) returns 0.0134

get_value(item= C82A A145U C150A U176A , readout=reverse-splicing fitness) returns 0.0485

get_value(item= C82A A111U A145U C150U C169A , readout=reverse-splicing fitness) returns 0.00985

get_value(item= C82G A111U A145G C150G C169U , readout=reverse-splicing fitness) returns 0.00972

get_value(item= C82G A111C A120C A145U C150U U176G , readout=reverse-splicing fitness) returns 0.00688

get_value(item= A111G A145G C150G C169A U176C , readout=reverse-splicing fitness) returns 0.0135

get_value(item= C82U A111U A120C C169U , readout=reverse-splicing fitness) returns 0.0117

get_value(item= C82A A120G A145C C150A C169U U176A , readout=reverse-splicing fitness) returns 0.0192

get_value(item= A111U A120G A145G C169A , readout=reverse-splicing fitness) returns 0.119

get_value(item= A111G A120U A145U U176G , readout=reverse-splicing fitness) returns 0.15

get_value(item= C82U A111C A145G C150A C169G U176C , readout=reverse-splicing fitness) returns 0.0256

get_value(item= A111G A145U C150U U176C , readout=reverse-splicing fitness) returns 0.697

get_value(item= A111U A120C A145C C150U C169U , readout=reverse-splicing fitness) returns 0.05

get_value(item= C82G A120C A145U C150A U176A , readout=reverse-splicing fitness) returns 0.0188

get_value(item= C82G A111U A120U A145C C150A C169A , readout=reverse-splicing fitness) returns 0.00264

get_value(item= C82G A120C C150A C169U U176A , readout=reverse-splicing fitness) returns 0.0156

get_value(item= C82G A111C A120C C150U C169U U176C , readout=reverse-splicing fitness) returns 0.0142

get_value(item= C82U A111C A120C A145U C150U C169A U176A , readout=reverse-splicing fitness) returns 0.0117

get_value(item= C82A A111G A120C A145G C150A C169U , readout=reverse-splicing fitness) returns 0.00999

get_value(item= C82U A111U A120C C150G U176G , readout=reverse-splicing fitness) returns 0.00352

get_value(item= A111C A120C A145C C150A C169G U176A , readout=reverse-splicing fitness) returns 0.0246

get_value(item= C82A A111G A120G A145G C169G U176A , readout=reverse-splicing fitness) returns 0.0204

get_value(item= C82U A111C A120C A145C C150A C169A U176G , readout=reverse-splicing fitness) returns 0.00679

get_value(item= C82U A111G A120U A145U C150U C169U U176A , readout=reverse-splicing fitness) returns 0.00262

get_value(item= C82U A120G A145C C150U C169U U176G , readout=reverse-splicing fitness) returns 0.00351
